All values here come from patent US11970490B2.

experiment: Pharmacokinetic studies in Sprague Dawley (SD) rats, oral gavage, plasma; format: in vivo; settings: Sprague-Dawley, rat, oral gavage, low dose 0.322 mg/kg, plasma, read-out: Vz/F
Would you kindly list Vd/F for each of these compounds?
Numbers only, in L/kg.

# compound, Vd/F / L/kg
rows = [
    ("Cc1nc(NC(=O)N2CCC[C@H]2C(N)=[18O])sc1-c1ccnc(C(C)(C)C(F)(F)F)c1", 11.4),
]

Q. Please look up its Vd/F: Cc1nc(NC(=O)N2CCC[C@H]2C(N)=O)sc1-c1ccnc(C(C)(C)C(F)(F)F)c1 [Alpelisib, reference compound]
A. 13.1
